- EXPERIMENT: Pharmacokinetic properties in SD rats after single intravenous injection and oral administration
- Format: in vivo
- CONDITION_SET: rat, plasma; Intravenous injection, 1 mg/kg, SD male rats
REPORTED_PROPERTY: clearance (mL/min/kg)

Some molecules with known clearance results, for comparison:
O=C(CC[C@@H]1C[C@@H](F)CN1c1cc(C(F)(F)F)c(=O)[nH]n1)N1CCN(c2ncc(C(F)(F)F)cn2)CC1 :: 32
O=C(CC[C@@H]1CCCN1c1cc(C(F)(F)F)c(=O)[nH]n1)N1CCN(c2ncc(C(F)(F)F)cn2)CC1 :: 12.2
O=C(COC[C@@H]1CCCN1c1cc(C(F)(F)F)c(=O)[nH]n1)N1CCN(c2ncc(C(F)(F)F)cn2)CC1 :: 46.9
O=C(CC[C@@H]1C[C@H](Oc2ccccc2)CN1c1cc(C(F)(F)F)c(=O)[nH]n1)N1CCN(c2ncc(C(F)(F)F)cn2)CC1 :: 42.2

A: C[C@@H](COCCC(=O)N1CCN(c2ncc(C(F)(F)F)cn2)CC1)Nc1cn[nH]c(=O)c1C(F)(F)F [RBN-2397, reference compound]
B: O=C(CC[C@@H]1C[C@@H](Oc2ccccc2)CN1c1cc(C(F)(F)F)c(=O)[nH]n1)N1CCN(c2ncc(C(F)(F)F)cn2)CC1
-- ask Consider entries A and B . Which has the numerically lower clearance? Pick one; state its label.
-- reply B

---

- EXPERIMENT: Pharmacokinetic properties in SD rats after single intravenous injection and oral administration
- Type: in vivo
- CONDITION_SET: rat, plasma; Oral gavage, standardized to a 1 mg/kg dose, SD male rats
- From the text: 1. Test purpose: to determine the pharmacokinetic characteristics of some of the example compound of the present invention in SD rats after single intravenous injection(IV) and oral administration(PO) by LC-MS/MS method. 2. […]
REPORTED_PROPERTY: Cmax (ng/mL)

O=C(CC[C@@H]1C[C@@H](F)CN1c1cc(C(F)(F)F)c(=O)[nH]n1)N1CCN(c2ncc(C(F)(F)F)cn2)CC1 [Compound 20] :: 15

A: O=C(COC[C@@H]1CCCN1c1cc(C(F)(F)F)c(=O)[nH]n1)N1CCN(c2ncc(C(F)(F)F)cn2)CC1 [Compound 1]
B: O=C(CC[C@@H]1CCCN1c1cc(C(F)(F)F)c(=O)[nH]n1)N1CCN(c2ncc(C(F)(F)F)cn2)CC1 [Compound 6]
-- ask I'm curious whether A or B has the smaller Cmax number. Which is it? The response must carry the label of the picked entry.
-- reply B
(B: 30.4 ng/mL, A: 53.5 ng/mL)

---

The entries below are paired with their reported pIC50.
- ASSAYED_SYSTEM: PARP7 (Homo sapiens (Human), UniProt Q7Z3E1)
- Sequence (Q7Z3E1 whole entry): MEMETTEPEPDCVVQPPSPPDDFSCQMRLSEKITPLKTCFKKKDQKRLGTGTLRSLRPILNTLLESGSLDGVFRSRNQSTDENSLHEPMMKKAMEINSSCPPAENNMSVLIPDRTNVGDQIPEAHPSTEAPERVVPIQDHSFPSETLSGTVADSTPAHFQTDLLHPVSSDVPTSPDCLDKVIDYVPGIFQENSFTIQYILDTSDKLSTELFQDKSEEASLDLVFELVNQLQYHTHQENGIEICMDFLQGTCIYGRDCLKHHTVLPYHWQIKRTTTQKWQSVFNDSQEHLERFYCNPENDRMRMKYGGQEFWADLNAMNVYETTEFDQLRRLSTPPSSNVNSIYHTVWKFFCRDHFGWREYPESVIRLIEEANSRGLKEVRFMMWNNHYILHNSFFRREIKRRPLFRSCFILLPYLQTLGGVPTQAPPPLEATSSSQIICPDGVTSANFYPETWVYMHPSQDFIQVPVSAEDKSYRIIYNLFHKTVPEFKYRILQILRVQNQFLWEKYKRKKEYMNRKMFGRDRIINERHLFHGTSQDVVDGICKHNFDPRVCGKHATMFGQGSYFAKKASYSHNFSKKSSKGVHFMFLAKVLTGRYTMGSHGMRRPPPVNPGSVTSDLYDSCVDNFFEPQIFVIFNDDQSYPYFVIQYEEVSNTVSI
# pIC50 is unitless: minus log10 of the molar concentration; print number only

Worked examples follow.
CO[C@H]1C[C@@H](CCC(=O)N2CCN(c3ncc(C(F)(F)F)cn3)CC2)N(c2cc(C(F)(F)F)c(=O)[nH]n2)C1 :: 8.48
O=C(CC[C@@H]1C[C@H](N2CCCC2)CN1c1cc(C(F)(F)F)c(=O)[nH]n1)N1CCN(c2ncc(C(F)(F)F)cn2)CC1 :: 8.30
O=C(CC[C@H]1CCCN1c1cc(C(F)(F)F)c(=O)[nH]n1)N1CCN(c2ncc(C(F)(F)F)cn2)CC1 :: 8.66
O=C(CC[C@@H]1C[C@H](F)CN1c1cc(C(F)(F)F)c(=O)[nH]n1)N1CCN(c2ncc(C(F)(F)F)cn2)CC1 :: 8.40
C[C@H]1CC(CCC(=O)N2CCN(c3ncc(C(F)(F)F)cn3)CC2)N(c2cc(C(F)(F)F)c(=O)[nH]n2)C1 (stereo partly drawn) :: 8.29

-- ask What is its pIC50 for PARP7 (Homo sapiens (Human), UniProt Q7Z3E1)? Entry: CCO[C@H]1C[C@@H](CCC(=O)N2CCN(c3ncc(C(F)(F)F)cn3)CC2)N(c2cc(C(F)(F)F)c(=O)[nH]n2)C1
-- reply 8.42
